Target: T1, mouse IL-2Rβ (mouse) (UniProt P16297)
T1 sequence (looked up): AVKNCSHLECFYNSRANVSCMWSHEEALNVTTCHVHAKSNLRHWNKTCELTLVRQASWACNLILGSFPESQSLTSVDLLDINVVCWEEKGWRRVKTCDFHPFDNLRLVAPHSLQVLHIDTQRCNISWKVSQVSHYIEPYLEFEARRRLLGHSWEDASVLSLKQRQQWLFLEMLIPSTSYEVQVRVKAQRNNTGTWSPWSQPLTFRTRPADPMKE
Test: P.E. ELISA, coated protein
MEASUREMENT_KIND: P.E. binding ELISA OD (OD450 nm)

q: Look up and state reported P.E. binding ELISA OD for FJ1427 P035MP02D05 (VHH) VHH: QVQLVESGGGLVQPGESLGLSCAASGFTFSNYAMSWVRQAPGKGLEWVSSITGAGRGTDYADSVKGRFTISRDNAKNTLYLQMNSLKPEDTAVYYCAKYSSGTYYPPTPVRGTDYRGQGTQVTVSS
a: 0.049

q: Look up and state reported P.E. binding ELISA OD for FJ1427_P035MP02F08 (VHH) VHH: QVQLVESGGGLVQAGGSLRLSCAASGSIFSLNTMGWFRQAPGKEREFVAAISRSGGSATYGDSVKGRFTISTNNAKTTVYLQMNSLKPDDTAVYSCAASAAVGWTTRWSTIDFDSWGQGTQVTVSS
a: 0.048

q: Look up and state reported P.E. binding ELISA OD for FJ1427 P035MP02D10 (VHH) VHH: EVQLVESGGGLVQAGGSLRLSCAASGRTFSSDAKAWFRQAPGKEREFVAAITWAGRGTDYADSVKDRFTITRDNAKNMVYLQMSSLKPEDTAVYYCALNPTGVIGPGFRNSNRYDYWGQGTQVTVAS
a: 0.047

q: Look up and state reported P.E. binding ELISA OD for FJ1427_P035MP02D03 (VHH) VHH: QVQLVESGGGLVQAGGPLRLSCAASGGTFSSYAMGWFRQAPGKEREFVAATTRGGGRTMYAVSTEGRFTCSRDNAKNTVYLLMNSLKPEDTAVYYCAAMTSYYSGTYYPDSSDFDIWGQGTQVTVSS
a: 0.048
